Study System: Hypoxia inducible factors; HIF-1-alpha, HIF-2-alpha (Homo sapiens, UniProt Q16665+Q99814)
Experiment Description: Inhibition of hypoxia-induced HIF1 activation in human AGS cells by reporter gene assay
Assay type: cell-based
Consider the cut-off 6 µM. If the recorded IC50 is strictly smaller, the label is Yes; if not, the label is No.

Exam item: Could you please tell me whether IC50 recorded for `C=C[C@@](C)(/C=C/c1ccc(OC)cc1)CCC=C(C)C` is less than 6 µM?
Marked response: No

Exam item: Could you please tell me whether IC50 recorded for `C=C[C@@](C)(/C=C/c1ccc(OCC)cc1)CCC=C(C)C` is less than 6 µM?
Marked response: No

Exam item: Could you please tell me whether IC50 recorded for C=C[C@@](C)(/C=C/c1ccc(O)cc1)CCC(O)C(C)(C)O (stereo partly drawn) is less than 6 µM?
Marked response: No

Exam item: Could you please tell me whether IC50 recorded for `C=C[C@@](C)(/C=C/c1ccc(OC(C)(C)[C@@H](O)CC[C@@](C)(C=C)/C=C/c2ccc(O)cc2)cc1)CCC=C(C)C` is less than 6 µM?
Marked response: No

Exam item: Could you please tell me whether IC50 recorded for `CO[C@H]1/C=C\C=C(/C)C(=O)NC2=CC(=O)C(NCCN(C)C)=C(C[C@@H](C)C[C@H](OC)[C@H](O)[C@@H](C)/C=C(\C)[C@@H]1OC(N)=O)C2=O` is less than 6 µM?
Marked response: Yes

Exam item: Could you please tell me whether IC50 recorded for `C=C[C@@](C)(/C=C/c1ccc(OC(C)=O)cc1)CCC=C(C)C` is less than 6 µM?
Marked response: Yes

Now take the following compound into account.
Exam item: Could you please tell me whether IC50 recorded for C=C[C@@](C)(/C=C/c1ccc(O)cc1)CCC1OC1(C)C (stereo partly drawn) is less than 6 µM?
Marked response: No
